Biological target: ACAT (acyl-CoA:cholesterol O-acyl-transferase enzyme)
Assay: Inhibition of ACAT in vitro
Conditions: technique of H. Chautan et al.
A collection of compounds and their measured IC50
assay metric: IC50 (nM)

[[record]]
compound = "CCCCCCCCCCCCSC(CCC)C(=O)Nc1cc(C)c(O)c(C)c1C (centres unmarked)"
units = "nM"
test_result = 110

[[record]]
compound = "CCCCCCCCCCCCSC(C)(C)C(=O)Nc1cc(C)c(O)c(C)c1C"
units = "nM"
test_result = 190

[[record]]
compound = "Cc1cc(NC(=O)C(C)(C)Oc2ccc(Cl)cc2)c(C)c(C)c1O"
units = "nM"
test_result = 1100

[[record]]
compound = "Cc1cc(NC(=O)C(C)(C)Sc2ccc(Cl)cc2)c(C)c(C)c1O"
units = "nM"
test_result = 1120

[[record]]
compound = "CCCCCCCCCCCCSC(CC)C(=O)Nc1cc(C)c(O)c(C)c1C (centres unmarked)"
units = "nM"
test_result = 310


* * *

Tested on: hepatic microsomal lipids (rat liver microsomes)
Experiment: Antioxidant activity: chemical peroxidation of hepatic microsomal lipids (TBARS)
Format: biochemical
Conditions: Fe3+/ADP/dihydroxyfumaric acid
assay metric: IC50

[[record]]
compound = "CCCCCCCCCCCCSC(CCC)C(=O)Nc1cc(C)c(O)c(C)c1C (stereo not drawn)"
test_result = "0.3 µM"

[[record]]
compound = "CCCCCCCCCCCCSC(C)(C)C(=O)Nc1cc(C)c(O)c(C)c1C"
test_result = "3 µM"

[[record]]
compound = "CCCCCCCCCCCCSC(C(=O)Nc1cc(C)c(O)c(C)c1C)c1ccccc1 (stereo not drawn)"
test_result = "0.6 µM"

[[record]]
compound = "CCCCCCCN(CCCCCSc1nc(-c2ccccc2)c(-c2ccccc2)[nH]1)C(=O)Nc1ccc(F)cc1F [DUP 128, reference compound]"
test_result = "> 10 µM"

[[record]]
compound = "CCCCCCCCCCCCSCC(=O)Nc1cc(C)c(O)c(C)c1C"
test_result = "5 µM"

[[record]]
compound = "CCCCCCCCCCCCSC(C(=O)Nc1cc(C)c(O)c(C)c1C)C(C)C (stereo not drawn)"
test_result = "5 µM"

[[record]]
compound = "CCCCCCCCCCCCSC(CC)C(=O)Nc1cc(C)c(O)c(C)c1C (stereo not drawn)"
test_result = "> 10 µM"

[[record]]
compound = "CCCCCCCCCCCCSC(CCCC)C(=O)Nc1cc(C)c(O)c(C)c1C (stereo not drawn)"
test_result = "0.5 µM"

[[record]]
compound = "CCCCCCCCCCC(C)(C)C(=O)Nc1c(OC)cc(OC)cc1OC [CI 976, reference compound]"
test_result = "> 10 µM"


* * *

Biological target: ACAT (acyl-CoA:cholesterol O-acyl-transferase enzyme)
Assay: Inhibition of ACAT in vitro
Conditions: technique of H. Chautan et al.
assay metric: IC50 (nM)

[[record]]
compound = "CCCCCCCCCCCCSC(C(=O)Nc1cc(C)c(O)c(C)c1C)C(C)C (stereo not drawn)"
assay_metric = "IC50"
test_result = 630

[[record]]
compound = "CCCCCCCCCCCCSC(CCCC)C(=O)Nc1cc(C)c(O)c(C)c1C (stereo not drawn)"
assay_metric = "IC50"
test_result = 160

[[record]]
compound = "CCCCCCCCCCCCSCC(=O)Nc1cc(C)c(O)c(C)c1C"
assay_metric = "IC50"
test_result = 300

